# System: tumors
# assay_remarks: Activity summary of exemplary deuterated compounds (Table 1)
# Format: cell-based
# cond: Table 1 summary, result in words
measurement_label: Activity

Here are 5 compounds together with their reported answers.
> print(dat)
                              line.notation  target.under.test  measurement.label                 result
1  [2H]C([2H])([2H])N1C(=O)CN=C(c2ccccc2F)c2cc(C#C)ccc21             tumors           Activity  Active against tumors
2  [2H]C1([2H])N=C(c2ccccc2F)c2cc(C#C)ccc2N(C([2H])([2H])[2H])C1=O             tumors           Activity  Active against tumors
3  [2H]C1([2H])N=C(c2ccccc2)c2cc(Cl)ccc2N(C([2H])([2H])[2H])C1=O             tumors           Activity               Inactive
4  [2H]C([2H])([2H])N1C(=O)CN=C(c2ccccc2)c2cc(C#C)ccc21             tumors           Activity  Active against tumors
5  [2H]C1([2H])N=C(c2ccccc2)c2cc(C#C)ccc2N(C([2H])([2H])[2H])C1=O             tumors           Activity  Active against tumors

Data request: Annotate the compound [2H]C([2H])([2H])N1C(=O)CN=C(c2ccccc2)c2cc(Cl)ccc21 with its measured Activity.
Data returned: Inactive

* * *

# System: H1792 human NSCLC cells
# assay_remarks: Cytotoxicity assay (CellTiter 96 AQueous One), H1792 cells
# Assay type: cell-based
# cond: NCI-H1792, 72 h, read-out: Cytotoxicity of deuterated compounds (IC50, μM)
measurement_label: IC50 (µM)
Give bare numbers, in µM.

> print(dat)
                              line.notation  quantitative.result
1  [2H]C1([2H])N=C(c2ccccc2)c2cc(C#C)ccc2N(C([2H])([2H])[2H])C1=O                 1.98

Below are 2 compounds. Give each one its IC50.
1. [2H]C([2H])([2H])N1C(=O)CN=C(c2ccccc2)c2cc(C#C)ccc21
2. [2H]C([2H])([2H])N1C(=O)CN=C(c2ccccc2F)c2cc(C#C)ccc21

Data returned:
1. 1.75
2. 2.13

Data request: Annotate the compound [2H]C1([2H])N=C(c2ccccc2F)c2cc(C#C)ccc2N(C([2H])([2H])[2H])C1=O with its measured IC50.
Data returned: 2.52

* * *

For each of the compounds below, state its IC50.
# System: LN18 human glioma cells
# assay_remarks: Cytotoxicity assay (CellTiter 96 AQueous One), LN18 cells
# Assay type: cell-based
# cond: LN-18, 72 h, read-out: Cytotoxicity of deuterated compounds (IC50, μM)
Numbers only, in µM.

> print(dat)
                                   compound  measurement.label  units.of.measure  quantitative.result
1  [2H]C([2H])([2H])N1C(=O)CN=C(c2ccccc2)c2cc(C#C)ccc21 [QHD3]               IC50                µM                 1.81
2  [2H]C1([2H])N=C(c2ccccc2F)c2cc(C#C)ccc2N(C([2H])([2H])[2H])C1=O [KRMD5]               IC50                µM                 2.67
3  [2H]C1([2H])N=C(c2ccccc2)c2cc(C#C)ccc2N(C([2H])([2H])[2H])C1=O [QHD5]               IC50                µM                 2.51

Okay, now this compound:
Data request: Annotate the compound [2H]C([2H])([2H])N1C(=O)CN=C(c2ccccc2F)c2cc(C#C)ccc21 [KRMD3] with its measured IC50.
Data returned: 2.43
